Target: human TRPA1 (Homo sapiens)
Sequence (O75762 whole entry): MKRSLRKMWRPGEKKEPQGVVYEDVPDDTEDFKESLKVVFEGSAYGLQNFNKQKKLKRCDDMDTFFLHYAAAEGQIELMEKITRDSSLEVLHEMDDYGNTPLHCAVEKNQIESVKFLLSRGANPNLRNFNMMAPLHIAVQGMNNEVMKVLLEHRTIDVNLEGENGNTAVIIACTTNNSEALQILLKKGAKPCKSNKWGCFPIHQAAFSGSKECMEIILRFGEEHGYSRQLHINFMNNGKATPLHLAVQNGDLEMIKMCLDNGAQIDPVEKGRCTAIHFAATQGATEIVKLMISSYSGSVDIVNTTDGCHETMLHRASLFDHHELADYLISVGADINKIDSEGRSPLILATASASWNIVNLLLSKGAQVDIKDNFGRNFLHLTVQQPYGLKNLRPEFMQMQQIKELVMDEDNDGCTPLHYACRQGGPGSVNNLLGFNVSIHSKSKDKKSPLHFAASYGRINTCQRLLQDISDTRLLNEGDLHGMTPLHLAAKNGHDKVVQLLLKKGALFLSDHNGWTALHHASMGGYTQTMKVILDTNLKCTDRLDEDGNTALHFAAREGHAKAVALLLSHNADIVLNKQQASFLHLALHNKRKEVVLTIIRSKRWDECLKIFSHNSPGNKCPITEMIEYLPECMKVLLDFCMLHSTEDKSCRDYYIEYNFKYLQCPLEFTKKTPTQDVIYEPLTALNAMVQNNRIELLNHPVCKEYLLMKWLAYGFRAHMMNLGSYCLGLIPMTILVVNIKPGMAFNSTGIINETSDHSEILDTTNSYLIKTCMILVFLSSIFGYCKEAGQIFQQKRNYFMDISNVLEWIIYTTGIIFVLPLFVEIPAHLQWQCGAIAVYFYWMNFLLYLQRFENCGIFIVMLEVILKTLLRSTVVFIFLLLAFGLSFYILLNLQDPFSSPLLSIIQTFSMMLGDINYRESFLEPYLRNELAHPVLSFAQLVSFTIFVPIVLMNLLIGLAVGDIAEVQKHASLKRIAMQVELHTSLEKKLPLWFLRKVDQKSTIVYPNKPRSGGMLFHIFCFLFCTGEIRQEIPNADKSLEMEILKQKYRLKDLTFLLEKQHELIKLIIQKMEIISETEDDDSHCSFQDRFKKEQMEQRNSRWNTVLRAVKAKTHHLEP
Assay: FLIPR Ca2+ assay, reduction of hydrogen peroxide activation of TRPA1
Type: cell-based
Design: expressed in transfected cells
Conditions: compound 100 μM against 200 μM hydrogen peroxide; Sets 1-4
Examples of compounds with documented Average Ca++ Counts follow.
Give the number; Counts is assumed, so skip it.

A selection of reference data follows.
compound=CCC=C(C)C(=O)O quantitative_readout=5040.0
compound=CCCCCCCCCCCO quantitative_readout=3396.0
compound="CC1(O)CSC(C)(O)CS1 (stereo not drawn)" quantitative_readout=2420.0

Exam item: Bench note: what Average Ca++ Counts did CCCCCCO show?
Marked response: 5664.5

Exam item: Okay, and CC(=O)C(=O)OCCC(C)C [isoamyl pyruvate] ?
Marked response: 2824.0

Exam item: Okay, and O=C(O)c1cccc(O)c1 [3-hydroxybenzoic acid] ?
Marked response: 3284.5

* * *

Target: human TRPA1 (Homo sapiens)
Test: FLIPR Ca2+ assay, reduction of hydrogen peroxide activation of TRPA1
Type: cell-based
Parameters: expressed in transfected cells
Conditions: compound 100 μM against 200 μM hydrogen peroxide; Sets 1-4
Description: After centrifugation, a pellet of cells was formed in the bottom of the tube separating them from the supernatant solution. The pelleted cells were re-suspended in 10 ml assay buffer and 90 μl aliquots (˜50,000 cells) per well delivered to a 96-well assay plate containing 10 μl of test compounds ([…]) or buffer control and incubated at room temperature for 30 minutes.
Examples of molecules with documented Average Ca++ Counts follow.
Give the number; Counts is assumed, so skip it.

molecule="CCOC(=O)CC1(C)OCCO1 [ethyl acetoacetate ethylene ketal]" unit_text=Counts quantitative_readout=3298.5

Exam item: Bench note: what Average Ca++ Counts did C=CC(CCCCC)OC(C)=O (stereo not drawn) [1-octen-3-yl acetate] show?
Marked response: 3228.5

Exam item: Okay, and CCCCCCC1OCC(C)O1 (stereo not drawn) [2-hexyl-4-methyl-1,3-dioxolan] ?
Marked response: 3376.0

* * *

Examples of compounds with documented inhibition at 100 µM follow.
Molecular target: human TRPV1 (Homo sapiens)
Sequence (Q8NER1 whole entry): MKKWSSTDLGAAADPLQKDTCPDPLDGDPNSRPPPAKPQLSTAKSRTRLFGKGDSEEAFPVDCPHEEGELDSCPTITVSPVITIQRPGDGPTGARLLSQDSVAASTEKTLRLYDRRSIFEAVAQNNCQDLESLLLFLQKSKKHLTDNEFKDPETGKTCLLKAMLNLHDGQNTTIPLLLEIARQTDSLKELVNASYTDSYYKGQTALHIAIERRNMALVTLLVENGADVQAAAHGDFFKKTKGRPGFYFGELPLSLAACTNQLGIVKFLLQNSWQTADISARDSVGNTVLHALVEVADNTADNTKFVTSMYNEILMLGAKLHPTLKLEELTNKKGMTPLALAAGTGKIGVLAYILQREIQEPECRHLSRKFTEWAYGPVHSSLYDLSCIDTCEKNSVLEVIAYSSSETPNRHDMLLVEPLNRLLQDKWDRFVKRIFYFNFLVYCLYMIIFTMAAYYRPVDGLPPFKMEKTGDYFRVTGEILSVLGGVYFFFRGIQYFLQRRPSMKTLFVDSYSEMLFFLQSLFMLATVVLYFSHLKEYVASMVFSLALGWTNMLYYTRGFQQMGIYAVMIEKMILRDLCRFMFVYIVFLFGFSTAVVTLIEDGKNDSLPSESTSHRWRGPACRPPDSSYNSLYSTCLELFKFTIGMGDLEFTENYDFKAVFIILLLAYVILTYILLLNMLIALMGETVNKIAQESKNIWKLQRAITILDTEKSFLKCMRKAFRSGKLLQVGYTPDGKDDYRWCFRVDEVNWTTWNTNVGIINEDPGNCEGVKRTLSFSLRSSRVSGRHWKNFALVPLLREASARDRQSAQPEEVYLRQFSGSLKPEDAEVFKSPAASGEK
Assay: FLIPR Ca2+ assay, reduction of L-Menthol activation of TRPV1
Settings: read-out: % Reduction of L-Menthol TRPV1 Activation
Give the number; % is assumed, so skip it.

compound="CSC(C)C(C)=O (stereo not shown)" assay_system="human TRPV1 (Homo sapiens)" recorded_metric="inhibition at 100 µM" quantitative_readout=20

Exam item: # query: inhibition at 100 µM | item CCCCC/C=C/C(=O)OC [methyl trans-2-octenoate] | system: human TRPV1 (Homo sapiens)
Marked response: 20.7

Exam item: Okay, and COC(=O)CCSC [methyl 3-(methylthio)propionate] ?
Marked response: 45.7

Exam item: Okay, and CCc1nccnc1OC ?
Marked response: 25.7

Exam item: Okay, and C/C=C/C(=O)OCC/C=C\CC [crotonic acid cis-3-hexen-1-yl ester] ?
Marked response: 38.7

Exam item: Okay, and COC(=O)c1cccnc1 [methyl nicotinate] ?
Marked response: 23.3

* * *

Biological target: UniProtKB Q8NER1
Test: FLIPR Ca2+ assay, reduction of L-Menthol activation of TRPV1
Settings: antagonist 100 μM against 1 mM L-Menthol
Structures can show the parent of a compound that is named as a salt.
RECORDED METRIC: Average Ca2+ Counts (Counts)
Give the number; Counts is assumed, so skip it.

molecule="O=C(CCl)c1ccccc1 [2-chloroacetophenone]" quantitative_readout=1313.0
molecule="CC(=O)C=O [pyruvic aldehyde]" quantitative_readout=1504.0
molecule="CC1SCCS1 [2-methyl-1,3-dithiolane]" quantitative_readout=2650.5
molecule="CCC/C=C/C(=O)OCC [ethyl trans-2-hexenoate]" quantitative_readout=1102.7
molecule="CC(C)=CCCC(C)CCO (racemic) [(+−)-beta;-citronellol]" quantitative_readout=1501.3
molecule="CC(C)=CCCC(C)CCOC=O (stereo not shown) [citronellyl formate]" quantitative_readout=1097.0

Exam item: Bench note: what Average Ca2+ Counts did CCCCCC(=O)OCC(C)C [isobutyl hexanoate] show?
Marked response: 3443.5

Exam item: Okay, and CC(C)CC(=O)Cc1ccccc1 [4-methyl-1-phenyl-2-pentanone] ?
Marked response: 2707.0

Exam item: Okay, and O=C1O[C@H]([C@@H](O)CO)C([O-])=C1O.[Na+] [(+)-sodium 1-ascorbate] ?
Marked response: 2961.0
